Biological target: fMet-Leu-Phe receptor (Homo sapiens)
Sequence (P21462 whole entry): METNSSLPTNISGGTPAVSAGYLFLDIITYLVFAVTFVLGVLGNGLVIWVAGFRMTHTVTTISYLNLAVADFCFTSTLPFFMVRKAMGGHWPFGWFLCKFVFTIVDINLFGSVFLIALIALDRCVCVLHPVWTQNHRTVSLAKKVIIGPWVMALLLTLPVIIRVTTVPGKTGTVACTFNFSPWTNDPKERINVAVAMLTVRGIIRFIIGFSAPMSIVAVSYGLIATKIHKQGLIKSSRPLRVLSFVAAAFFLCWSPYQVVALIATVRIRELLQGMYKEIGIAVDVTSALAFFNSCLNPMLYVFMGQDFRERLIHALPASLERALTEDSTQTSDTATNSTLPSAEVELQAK
measured.parameter: IC50 (µM)

compound | system.tested | measured.parameter | endpoint.unit | readout.qualifier | reported.measurement
COc1ccc(OC)c(C2C(C(=O)c3cccs3)C(=O)C(=O)N2c2cc(C)on2)c1 (centres undefined) | fMet-Leu-Phe receptor (Homo sapiens) | IC50 | µM | > | 66.7
CCCOc1ccc(C2C(C(=O)c3ccc(C)o3)C(=O)C(=O)N2Cc2cccnc2)cc1 (centres undefined) | fMet-Leu-Phe receptor (Homo sapiens) | IC50 | µM | = | 42.7
COc1ccc(C(=O)C2C(=O)C(=O)N(CCN3CCOCC3)C2c2ccc(C)cc2)cc1 (centres undefined) | fMet-Leu-Phe receptor (Homo sapiens) | IC50 | µM | > | 66.7
COC(=O)c1[nH]c(C)c(C(=O)C2C(=O)C(=O)N(CCCN3CCOCC3)C2c2ccccn2)c1C (centres undefined) | fMet-Leu-Phe receptor (Homo sapiens) | IC50 | µM | = | 9.7
COCCCN1C(=O)C(=O)C(C(=O)c2ccco2)C1c1ccccc1 (centres undefined) | fMet-Leu-Phe receptor (Homo sapiens) | IC50 | µM | = | 14.5
COC(=O)c1[nH]c(C)c(C(=O)C2C(=O)C(=O)N(CCN3CCOCC3)C2c2cccnc2)c1C (centres undefined) | fMet-Leu-Phe receptor (Homo sapiens) | IC50 | µM | = | 20.8
O=C1C(=O)N(CCc2ccccc2)C(c2cccnc2)C1C(=O)c1ccco1 (centres undefined) | fMet-Leu-Phe receptor (Homo sapiens) | IC50 | µM | > | 66.7
CCOc1ccc(C2C(C(=O)c3ccco3)C(=O)C(=O)N2Cc2cccnc2)cc1 (centres undefined) | fMet-Leu-Phe receptor (Homo sapiens) | IC50 | µM | = | 15.3
CCOc1cc(C2C(C(=O)c3ccc(C)o3)C(=O)C(=O)N2CCc2ccccc2)ccc1O (centres undefined) | fMet-Leu-Phe receptor (Homo sapiens) | IC50 | µM | = | 30.4
